Each recorded value in this set is attributed to the Kinase Knowledgebase extract (Sharma et al. 2016).

studyTarget: PIK3CB;PIK3CG;PIK3CD;PIK3CA (human)
method: Enzyme Assay
// bucketize IC50: low (below 0.2 µM), intermediate (0.2 µM to below 0.6 µM), high (0.6 µM or more)

- O=C(c1nn(C2CCCN(C3CCOCC3)C2)c2c1CS(=O)(=O)c1ccccc1-2)N1CCOCC1 (centres undefined): intermediate
- COc1cccc2c1S(=O)(=O)Cc1c(C(=O)N3CCOCC3)nn(-c3ccccc3)c1-2: intermediate
- O=C(c1nn(C2CCCOC2)c2c1CS(=O)(=O)c1ccccc1-2)N1CCOCC1 (centres undefined): intermediate

Just checking, what class would you give O=C(c1nn(-c2ccccc2Br)c2c1CS(=O)(=O)c1ccccc1-2)N1CCOCC1 here?
high

Just checking, what class would you give O=C(O)c1nn(-c2ccc(CN3CCOCC3)cc2)c2c1CS(=O)(=O)c1ccccc1-2 here?
high

Just checking, what class would you give O=C(c1nn([C@H]2CCCN(C3CCOCC3)C2)c2c1CS(=O)(=O)c1c(F)cccc1-2)N1CCOCC1 here?
low

Just checking, what class would you give O=C(c1cccc(-n2nc(C(=O)N3CCOCC3)c3c2-c2ccccc2S(=O)(=O)C3)c1)N1CCOCC1 here?
low
